# Test system: Staphylococcus epidermidis
# experiment: Antimicrobial activity against methicillin-resistant Staphylococcus epidermidis RP62A after 24 hrs by broth micro-dilution method
# Assay type: functional
Please respond with reported MIC for every item in the list.
Dear colleague, please send the value followed by its unit.

Look over these answered cases.
CCCCCCCCCCCCCCCC(=O)NCCN(C(C)=O)[C@@H](C)C(=O)NCCN(C(C)=O)[C@@H](C)C(=O)NCCN(C(=O)CCCN)[C@@H](CCCCN)C(=O)NCCN(C(=O)CCCN)[C@@H](CCCCN)C(=O)NCCN(C(=O)CCCN)[C@@H](CCCCN)C(N)=O :: 10 µg/mL
CCCCCCCCCCCCCCCC(=O)NCCN(C(=O)CCCN)[C@@H](Cc1ccccc1)C(=O)NCCN(C(=O)CCCN)[C@@H](Cc1ccccc1)C(=O)NCCN(C(=O)CCCN)[C@@H](Cc1ccccc1)C(=O)NCCN(C(=O)CCCN)[C@@H](Cc1ccccc1)C(=O)NCCN(C(=O)CCCN)[C@@H](Cc1ccccc1)C(N)=O :: 10 µg/mL

Okay, next one:
Input CCCCCCCCCCCCCCCC(=O)NCCN(C(=O)CCC(C)C)[C@@H](CCCCN)C(=O)NCCN(C(=O)CCC(C)C)[C@@H](CCCCN)C(N)=O . Output MIC: 10 µg/mL

* * *

Field: HC50. Provide a value for each of the molecules that follow.
# experiment: Toxicity in RBC assessed as hemolysis
# Type: cell-based, Erythrocyte
# condition-label: red blood cells (RBC)

CCCCCCCCCCCCCCCC(=O)NCCN(C(=O)CCC(C)C)[C@@H](CCCCN)C(=O)NCCN(C(=O)CCC(C)C)[C@@H](CCCCN)C(N)=O :: > 500 µg/mL

Can you give me HC50 for all of these, one by one?
1. CCCCCCCCCCCCCCCC(=O)NCCN(C(C)=O)[C@@H](C)C(=O)NCCN(C(C)=O)[C@@H](C)C(=O)NCCN(C(=O)CCCN)[C@@H](CCCCN)C(=O)NCCN(C(=O)CCCN)[C@@H](CCCCN)C(=O)NCCN(C(=O)CCCN)[C@@H](CCCCN)C(N)=O
2. CCCCCCCCCCCCCCCC(=O)NCCN(C(=O)CCc1ccccc1)[C@@H](CCCCN)C(=O)NCCN(C(=O)CCc1ccccc1)[C@@H](CCCCN)C(N)=O

Key:
1. > 500 µg/mL
2. > 500 µg/mL
